Target: recombinant human calcineurin catalytic domain, calcineurin(2-347) (Homo sapiens, UniProt Q08209, L343A/M347D/Y341S)
Construct: GST (N, cleaved yes)
Sequence (Q08209 2-347 Y341S/L343A/M347D): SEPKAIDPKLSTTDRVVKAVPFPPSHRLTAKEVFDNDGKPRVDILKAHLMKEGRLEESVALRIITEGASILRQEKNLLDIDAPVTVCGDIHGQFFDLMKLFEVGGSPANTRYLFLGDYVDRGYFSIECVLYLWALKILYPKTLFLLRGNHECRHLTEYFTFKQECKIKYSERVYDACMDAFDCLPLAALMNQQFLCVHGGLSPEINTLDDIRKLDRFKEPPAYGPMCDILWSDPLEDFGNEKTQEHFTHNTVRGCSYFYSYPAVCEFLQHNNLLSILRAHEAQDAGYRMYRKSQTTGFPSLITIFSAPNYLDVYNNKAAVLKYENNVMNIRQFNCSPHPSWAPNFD
Test: fluorescence polarization competition assay, displacement of OG-VIVIT from calcineurin
Settings: calcineurin-VIVIT peptide interaction; read-out: Estimated IC50
Exercise: state measured IC50 for each of the molecules provided.
Provide only the numeric value, understood in µM.

Lab note: measured IC50 of O=C1C=CC(=O)C2=C1C1c3ccccc3C2c2ccccc21 [INCA6] was 17

Lab note: measured IC50 of O=C1C(Cl)=C(Cl)C(=NS(=O)(=O)c2ccccc2)c2ccccc21 [INCA2] was 3

Lab note: measured IC50 of CC(=O)C(C(C)=O)C1=C(Cl)C(=O)C(=O)c2c(C(=O)c3ccccc3)coc21 [INCA1] was 1
